Tested on: SW620 cells
Assay: SW620 cell proliferation assay (colorectal cancer, G12V), 5 days
Type: cell-based
Details: Homo sapiens, SW-620, 120 h
Quick reference: IC50 of the listed items.
The reply should be a number in µM, with the unit left off.

Record summary for Cc1ncsc1-c1ccc(CNC(=O)[C@@H]2C[C@@H](O)CN2C(=O)C(c2cc(OCCCCN3CCCN(c4nccc(-c5cc([C@@]6(C)CCCc7sc(N)c(C#N)c76)on5)n4)[C@@H](C)C3)no2)C(C)C)cc1 (stereo partly shown) : reported IC50 = 0.0534

IC50 recorded for this compound, Cc1ncsc1-c1ccc([C@@H](NC(=O)[C@@H]2C[C@@H](O)CN2C(=O)[C@H](C(C)C)n2cc(OCCCN3CCCN(c4nccc(-c5noc([C@@]6(C)CCCc7sc(N)c(C#N)c76)n5)n4)[C@@H](C)C3)nn2)[C@H](O)C(C)C)cc1 (single isomer, unassigned) , is 0.0094

Sample `Cc1ncsc1-c1ccc([C@H](CCO)NC(=O)[C@@H]2C[C@@H](O)CN2C(=O)[C@H](C(C)C)n2cc(OCCCCN3CCCN(c4nccc(-c5noc([C@@]6(C)CCCc7sc(N)c(C#N)c76)n5)n4)[C@@H](C)C3)nn2)cc1` ; IC50 observed: 0.0284

IC50 measured on Cc1ncsc1-c1ccc(CNC(=O)[C@@H]2C[C@@H](O)CN2C(=O)[C@@H](c2cc(OCCCN3CCCN(c4nccc(-c5noc([C@@]6(C)CCCc7sc(N)c(C#N)c76)n5)n4)[C@@H](C)C3)no2)C(C)C)cc1 (single isomer, unassigned) = 0.00988

====

Target: KRAS(G12D) (Homo sapiens, UniProt P01116, G12D)
Construct: introduced immediately downstream of the initiating Methionine codon of the endogenous KRAS locus; host or cells: GP5d-HiBit-KRAS(G12D), a CRISPR knock-in at the endogenous locus
Sequence (P01116 1-188 isoform P01116-2 G12D): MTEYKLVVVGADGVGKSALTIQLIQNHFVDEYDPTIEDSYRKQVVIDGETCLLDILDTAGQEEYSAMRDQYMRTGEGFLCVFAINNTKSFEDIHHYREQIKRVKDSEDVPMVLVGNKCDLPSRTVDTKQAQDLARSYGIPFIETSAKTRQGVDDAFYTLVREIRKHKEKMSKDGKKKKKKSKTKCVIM
Assay: HiBit degradation assay in GP5d-HiBit-KRAS(G12D) cells (18 h; DC50, Dmax)
Type: cell-based
Measured property: DC50 (nM)
Answer format: numeric, nM implied, no suffix.

# annotated cases, reported DC50 shown
[[record]]
compound = "Cc1ncsc1-c1ccc(CNC(=O)[C@@H]2C[C@@H](O)CN2C(=O)C(c2cc(OCCOCCN3CCCN(c4nccc(-c5noc([C@@]6(C)CCCc7sc(N)c(C#N)c76)n5)n4)[C@@H](C)C3)no2)C(C)C)cc1 (some centres unmarked)"
measured_property = "DC50"
assay_value = 76

[[record]]
compound = "Cc1ncsc1-c1ccc(CNC(=O)[C@@H]2C[C@@H](O)CN2C(=O)C(c2cc(OCCCCN3CCCN(c4nccc(-c5cc([C@@]6(C)CCCc7sc(N)c(C#N)c76)sn5)n4)[C@@H](C)C3)no2)C(C)C)cc1 (some centres unmarked)"
measured_property = "DC50"
assay_value = 42.1


The measured DC50 associated with Cc1ncsc1-c1ccc([C@@H](NC(=O)[C@@H]2C[C@@H](O)CN2C(=O)[C@@H](C(C)C)n2cc(OCCCCN3CCCN(c4nccc(-c5noc([C@@]6(C)CCCc7sc(N)c(C#N)c76)n5)n4)[C@@H](C)C3)nn2)[C@H](C)O)cc1 (single isomer, unassigned) reads 970

The measured DC50 associated with CC(C)C(C(=O)N1C[C@H](O)C[C@H]1C(=O)NCc1ccc(-c2scnc2CO)cc1)c1cc(OCCCCN2CCCN(c3nccc(-c4noc([C@@]5(C)CCCc6sc(N)c(C#N)c65)n4)n3)[C@@H](C)C2)no1 (some centres unmarked) reads 12.9

Measured DC50, Cc1ncsc1-c1ccc(CNC(=O)[C@@H]2C[C@@H](O)CN2C(=O)C(c2cc(OCCN3CCCN(c4nccc(-c5noc([C@@]6(C)CCCc7sc(N)c(C#N)c76)n5)n4)[C@@H](C)C3)no2)C(C)C)cc1 (some centres unmarked) : 263
